Recorded CLIP by entry
Assay: Lipophilicity (calculated by CLIP)
attribute_measured: CLIP

# molecule, attribute_measured, data_value
records = [
    ("CCCCCCCN1C(=O)NC(c2ccc(Br)cc2)(c2ccc(Br)cc2)C1=O", "CLIP", 7.45),
    ("CCCCN1C(=O)NC(c2ccccc2)(c2ccccc2)C1=O", "CLIP", 4.26),
    ("O=C1NC(Cc2c[nH]c3ccccc23)C(=O)N1Cc1cccc2ccccc12 (centres undefined)", "CLIP", 2.92),
    ("CCCCCCN1C(=O)NC(c2ccc(C)cc2)(c2ccc(C)cc2)C1=O", "CLIP", 6.48),
    ("CCCCCCN1C(=O)NC(Cc2c[nH]c3ccccc23)C1=O (centres undefined)", "CLIP", 3.21),
    ("CCCCCCCCN1C(=O)NC(c2ccc(Br)cc2)(c2ccc(Br)cc2)C1=O", "CLIP", 7.99),
    ("CCCCCCCN1C(=O)NC(c2ccc(C)cc2)(c2ccc(C)cc2)C1=O", "CLIP", 7.04),
    ("COc1ccc(C2(c3ccc(OC)cc3)NC(=O)N(CCN3CCOCC3)C2=O)cc1", "CLIP", 2.73),
    ("Cc1ccc(C2(c3ccc(C)cc3)NC(=O)N(CCN3CCOCC3)C2=O)cc1", "CLIP", 3.49),
]
